Test system: D-392MG (Glioblastoma)
ASSAY EXPLANATION: Bliss excess, mean over the matrix (fraction); higher = more synergy;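 note: after 72 h of two-drug dosing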
QUANTITY KIND: Bliss excess
Write no unit; give the number alone.

Record excerpt, results attached:
INSERT INTO measurements (compound, observed_measurement) VALUES
  ('Cc1c2c(nn1C)CSCc1cc(n(C)n1)CSc1cc(c3ccccc3c1)OCCCc1c(C(=O)O)n(C)c3c-2c(Cl)ccc13 [AZD5991] + Cn1cnc2c(F)c(Nc3ccc(Br)cc3Cl)c(C(=O)NOCCO)cc21 [Selumetinib] (first compound max 1 µM, 7x7, partner max 3 µM)', 0.0339),
  ('CN(C)CCCOc1ccc(-c2ccc3ncc4c(c3c2)n(C2CCOCC2)c(=O)n4C)cn1 [AZD0156] + C[C@@H]1COCCN1C2=NC(=NC(=C2)C3(CC3)[S@](=N)(=O)C)C4=C5C=CNC5=NC=C4 [AZD6738] (first compound max 1 µM, 7x7, partner max 10 µM)', -0.0549),
  ('Cc1c2c(nn1C)CSCc1cc(n(C)n1)CSc1cc(c3ccccc3c1)OCCCc1c(C(=O)O)n(C)c3c-2c(Cl)ccc13 [AZD5991] + C[C@@H]1COCCN1C2=NC(=NC(=C2)C3(CC3)[S@](=N)(=O)C)C4=C5C=CNC5=NC=C4 [AZD6738] (first compound max 1 µM, 7x7, partner max 10 µM)', -0.0053);

Next:
**Query** Entry Cc1cc2ncnn2cc1Nc1ncc2c(n1)n(C1CCOCC1)c(=O)n2C [AZD7648] + CCN(CCO)CCCOc1ccc2c(Nc3cc(CC(=O)Nc4cccc(F)c4)[nH]n3)ncnc2c1 [AZD2811] (first compound max 10 µM, 7x7, partner max 1 µM) : reported Bliss excess = ?
**Result** -0.0108

* * *

Test system: SNU-61 (Colorectal Carcinoma)
ASSAY EXPLANATION: Bliss excess, mean over the matrix (fraction); higher = more synergy
QUANTITY KIND: Bliss excess

Record excerpt, results attached:
INSERT INTO results (compound, observed_measurement) VALUES
  ('CC1(C)CCC(CN2CCN(c3ccc(C(=O)NS(=O)(=O)c4ccc(NCC5CCOCC5)c([N+](=O)[O-])c4)c(Oc4cnc5[nH]ccc5c4)c3)CC2)=C(c2ccc(Cl)cc2)C1 [Venetoclax] + C[C@@H]1COCCN1C2=NC(=NC(=C2)C3(CC3)[S@](=N)(=O)C)C4=C5C=CNC5=NC=C4 [AZD6738] (first compound max 1 µM, 7x7, partner max 10 µM)', 0.0295),
  ('CCN(CCO)CCCOc1ccc2c(Nc3cc(CC(=O)Nc4cccc(F)c4)[nH]n3)ncnc2c1 [AZD2811] + C[C@@H]1COCCN1C2=NC(=NC(=C2)C3(CC3)[S@](=N)(=O)C)C4=C5C=CNC5=NC=C4 [AZD6738] (first compound max 1 µM, 7x7, partner max 10 µM)', -0.0434),
  ('COc1nnc2ccc(N3CCC(c4ccc(OCCN5CCN(C)C(=O)[C@H]5C)cc4)CC3)nn12 [AZD5153] + Cn1cnc2c(F)c(Nc3ccc(Br)cc3Cl)c(C(=O)NOCCO)cc21 [Selumetinib] (first compound max 1 µM, 7x7, partner max 10 µM)', 0.0407);

Next:
**Query** Given the entry NC1(C(=O)N[C@@H](CCO)c2ccc(Cl)cc2)CCN(c2ncnc3[nH]ccc23)CC1 [Capivasertib] + CC(C)n1c(=O)n(C)c2cnc3cc(F)c(-c4ccc(OCCCN5CCCCC5)nc4)cc3c21 [AZD1390] (first compound max 10 µM, 7x7, partner max 0.3 µM) , what Bliss excess was observed with SNU-61 (Colorectal Carcinoma)?
**Result** -0.064
